Cited source for all entries: patent US20160304615A1

Target: T1, EGFRvIII-mFc (human)
T1 construct: Soluble dimeric protein
Test: SPR 37C, receptor-capture
Method: Measurements were conducted on a T100 BIACORE™ instrument. […] In the receptor-capture format, either EGFRvIII-mFc or EGFR-mFc, was captured on the BIACORE™ chip and the respective antibodies flowed over. Kinetic association (kₐ) and dissociation (kd) rate constants were determined by processing and fitting the data to a 1:1 binding model using Scrubber 2.0 curve fitting software. […]
Lab note: compare T½ with 500 min, writing label 1 if less and label 0 if equal or more.

binder="H1H1863N2(Fuc-) (antibody, human IgG1, V domains shown, Human IgG1; also called H1H1863N2 with reduced fucosylation; H1H1862N2 (Fuc-)) VH: EVQLVESGGGLVQPGGSLRLSCAASGFPFSSYDMHWVRQATGKGLEWVSAIGTAGATYYPGSVKGRFTISRENAKNSLYLQMNSLRAGDTAVYYCARGDYVWGTYRPLFDYWGQGTLVTVSS VL: DIQLTQSPSFLSASVGDRVTITCWASQGINNYLAWYQQKPGKAPKLLIYAASTLQTGVPSRFSGSGSGTEFTLTISSLQPEDFATYYCQQLNSYPLTFGGGTKVEIK" classassignment="label 1"
binder="H1H1912N (antibody, human IgG1, V domains shown, Human IgG1 Fc; also called H2M1912N (same variable domains)) VH: EVQLVESGGGLVQPGRSLRLSCAASGFTFDDYAMHWVRQVPGKGLEWVSGISWNSGSIGYADSVKGRFTISRDNAKNSLYLQMNSLRAEDTALYYCAKDIHDYGKDYYYYYGMDVWGQGTTVTVSS VL: EIALTQSPGTLSLSPGERATLSCRASQSVSSTYLAWYQQKPGQAPRLLIYGASSRATGIPDRFSGSGSGTDFTLTISRLEPEDFAVYYCQQYDSSPITFGQGTRLEIK" classassignment="label 1"
binder="H1H1863N2(Fuc+) (antibody, human IgG1, V domains shown, the numerical identifier ties them; also called H1H863N2; H1H863N2(Fuc+)) VH: EVQLVESGGGLVQPGGSLRLSCAASGFPFSSYDMHWVRQATGKGLEWVSAIGTAGATYYPGSVKGRFTISRENAKNSLYLQMNSLRAGDTAVYYCARGDYVWGTYRPLFDYWGQGTLVTVSS VL: DIQLTQSPSFLSASVGDRVTITCWASQGINNYLAWYQQKPGKAPKLLIYAASTLQTGVPSRFSGSGSGTEFTLTISSLQPEDFATYYCQQLNSYPLTFGGGTKVEIK" classassignment="label 1"
binder="H1H1913N (antibody, human IgG1, V domains shown, Human IgG1 Fc; also called H3M1913N (same variable domains)) VH: QVQLQQWGAGLLKPSETLSLTCAVYGGSFSGDYWSWIRQSPGKGLEWIGEINHSGSTNYNPSLKSRVTISIDTSKNQFSLKLSSVTAADTAVYYCARGGGDYYYGMDVWGLGTTVTVSS VL: AIQMTQSPSSLSASVGDRVTITCRASQGIGNDLGWYQQKPGKAPNLLIYATSSLQSGVPSRFSGSGSGTDFTLTISSLQPEDFATYYCLQDYNYPWTFGQGTKVEIK" classassignment="label 0"

Lab log: compare recorded T½ with 500 min; is it strictly lower for H1H2195P (antibody, human IgG1, V domains shown, Human IgG1 Fc; also called H1H2195N) VH: QVQLVESGGGVVQPGRSRRLSCVGSGFIFSSYGMHWVRQAPGKGLEWVALIFYDGSNEYYVDSVKGRFTISRDNSKNTLYLQMNSLRAEDTAVYYCAREGYSQRYKYYFGMDVWGQGTTVTVSS VL: DIQMTQSPSSVSASVGDRVTITCRASQGISSWLAWYQQQPGKAPKLLIYAASSLQSGVPSRFSGSGSGTDFTLTISSLQPEDFATYYCQQTNSFPLTFGGGTKVEIKR ?
label 1
